assay: Validation screen for small molecules that induce DNA re-replication in MCF 10A normal breast cells (AID 463097); conditions: MCF 10A cells, DNA re-replication phenotype imaging; series mostly up to 46.1 µM; further: nearly all actives have a fitted effect of over 60% in size
Results filed as inconclusive are left out. Active and inactive are the calls of the source. The call rests on the fitted dose curve; in most records, active means well fitted activation curve with a large enough effect; inconclusive means small, poorly fitted or top-dose-only effect; inactive means flat fitted curve, though single readings scatter.
Possible outcomes: active, inactive

>  <compound>
FC(F)(F)c1ccccc1-n1ccnc1

>  <assigned-category>
inactive

$$$$
>  <compound>
O=C(CCNNC(=O)c1ccncc1)NCc1ccccc1

>  <assigned-category>
inactive

$$$$
>  <compound>
CCN1CCC[C@H]1CNC(=O)c1c(O)c(Cl)cc(Cl)c1OC

>  <assigned-category>
inactive

$$$$
>  <compound>
OC(CCN1CCCCC1)(c1ccccc1)C1CCCCC1 (stereo unspecified)

>  <assigned-category>
inactive

$$$$
>  <compound>
NCCCNCCSP(=O)(O)O

>  <assigned-category>
inactive

$$$$
>  <compound>
C[N+](C)(C)CCCCCCCCCC[N+](C)(C)C

>  <assigned-category>
inactive

$$$$
>  <compound>
Cc1scc2c1N(C(=O)CN1CCN(C)CC1)c1ccccc1NC2=O

>  <assigned-category>
inactive

$$$$
>  <compound>
CN(C)CC/C=C1\c2ccccc2COc2ccccc21

>  <assigned-category>
inactive

$$$$
>  <compound>
COC(=O)[C@H]1[C@H]2C[C@@H]3c4[nH]c5cc(OC)ccc5c4CCN3C[C@H]2C[C@@H](OC(=O)c2cc(OC)c(OC)c(OC)c2)[C@@H]1OC

>  <assigned-category>
active

$$$$
>  <compound>
CNCCCN1c2ccccc2CCc2ccccc21

>  <assigned-category>
inactive

$$$$
>  <compound>
OCCN1CCN(CC/C=C2/c3ccccc3Sc3ccc(C(F)(F)F)cc32)CC1

>  <assigned-category>
active

$$$$

====

experiment: qHTS of pediatric cancer cell lines to identify multiple opportunities for drug repurposing: Primary screen for SK-N-MC cells (AID 1347093); conditions: SK-N-MC viability, CellTiter-Glo luminescence, 48 h; series mostly up to 46 µM
Results filed as inconclusive are left out. Active and inactive are the calls of the source. Calls come from the whole dose curve; as a rule, active = well fitted cell-killing curve with a large enough effect; inconclusive = small, poorly fitted or top-dose-only effect; inactive = no such curve, though single readings can be large or run the other way.
Outcomes: active, inactive

>  <compound>
CC(=O)OCC1=C(C(=O)O)N2C(=O)[C@@H](NC(=O)Cc3cccs3)[C@H]2SC1

>  <assigned-category>
inactive

$$$$
>  <compound>
CC(=O)Nc1nnc(S(N)(=O)=O)s1

>  <assigned-category>
inactive

$$$$
>  <compound>
CC1=NS(=O)(=O)c2cc(Cl)ccc2N1

>  <assigned-category>
inactive

$$$$
>  <compound>
CN(C)[C@@H]1C(=O)C(C(N)=O)=C(O)[C@@]2(O)C(=O)C3=C(O)c4c(O)ccc(Cl)c4[C@@H](O)[C@H]3C[C@@H]12

>  <assigned-category>
inactive

$$$$
>  <compound>
Cc1nnc(SCC2=C(C(=O)O)N3C(=O)[C@@H](NC(=O)Cn4cnnn4)[C@H]3SC2)s1

>  <assigned-category>
inactive

$$$$
>  <compound>
COc1ccc(CCN(C)CCCC(C#N)(c2cc(OC)c(OC)c(OC)c2)C(C)C)cc1OC (stereo not given)

>  <assigned-category>
inactive

$$$$
>  <compound>
CC(C)COCC(CN(Cc1ccccc1)c1ccccc1)N1CCCC1 (stereo not given)

>  <assigned-category>
active

$$$$
>  <compound>
C[C@H](CS)C(=O)N1CCC[C@H]1C(=O)O

>  <assigned-category>
inactive

$$$$
>  <compound>
FC(F)(F)c1ccccc1-n1ccnc1

>  <assigned-category>
inactive

$$$$
>  <compound>
O=C1NCN(c2ccccc2)C12CCN(CCCC(c1ccc(F)cc1)c1ccc(F)cc1)CC2

>  <assigned-category>
active

$$$$
